Origin of measurements: the supplement of paper PMC12455559

TEST DESCRIPTION: melting temperature (DSF); higher = more thermostable

>  <RECORD SEQUENCE>
ADNPYERGPNPTESLIEAARGPFATSQTTVSSLSVTGFGGGVIYYPTDTSQGTFGGIAISPGYTAAWSSLDWLGPRLASHGFVVIGIETNTRLDQPASRGDQLLAALDYLTQRSSVRSRVDATRLAVAGHSMGGGGSLEAAKDRTSLKAAIPLAPWNTDKTWPEVRTPTLIIGGESDTVAPVSSHSIPFYTSLTSAREKAYLELDNASHFFPQTSNTTMAKYMISWMKRYIDNDTRYEQFLCPGPSTGLLSGISDWRQTCPGS [TEP073]

>  <melting temperature>
46.9 C

$$$$
>  <RECORD SEQUENCE>
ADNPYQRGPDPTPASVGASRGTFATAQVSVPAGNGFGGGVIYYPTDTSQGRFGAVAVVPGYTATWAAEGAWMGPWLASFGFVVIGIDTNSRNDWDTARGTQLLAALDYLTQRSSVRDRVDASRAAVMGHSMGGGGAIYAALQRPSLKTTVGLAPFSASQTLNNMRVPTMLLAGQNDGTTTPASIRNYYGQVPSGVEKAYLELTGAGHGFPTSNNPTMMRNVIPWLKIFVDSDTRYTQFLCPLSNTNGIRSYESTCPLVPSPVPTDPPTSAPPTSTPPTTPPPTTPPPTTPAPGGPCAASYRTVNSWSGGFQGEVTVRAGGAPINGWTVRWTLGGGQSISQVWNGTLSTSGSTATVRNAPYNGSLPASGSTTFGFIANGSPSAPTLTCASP [TEP013]

>  <melting temperature>
64 C

$$$$
